Molecular target: T1, MurineB7-H4 (Mus musculus, UniProt Q7TSP5)
T1 construct: Mouse B7H4 ECD; FLAG (C); 10His (C); made in house
T1 sequence (Q7TSP5 25-257 limits assumed): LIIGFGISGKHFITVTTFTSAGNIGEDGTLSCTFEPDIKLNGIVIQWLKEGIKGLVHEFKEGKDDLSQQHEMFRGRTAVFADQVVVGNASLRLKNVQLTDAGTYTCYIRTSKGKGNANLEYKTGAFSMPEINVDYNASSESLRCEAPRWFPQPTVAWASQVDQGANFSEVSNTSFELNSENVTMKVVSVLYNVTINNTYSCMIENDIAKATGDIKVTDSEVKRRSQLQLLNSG
Assay: ForteBio Octet affinity
Type: binding, murine
Details: hIgG1 (n = 1)
Measured kdis values are reported for all entries that follow.
Numbers only; they are read as s⁻¹.

MOLECULE	kdis (s⁻¹)
ZY0EPQ-E02: anti-B7-H4 antibody clone, VH SEQ ID NO: 31, VL SEQ ID NO: 32 (antibody, V domains shown) VH: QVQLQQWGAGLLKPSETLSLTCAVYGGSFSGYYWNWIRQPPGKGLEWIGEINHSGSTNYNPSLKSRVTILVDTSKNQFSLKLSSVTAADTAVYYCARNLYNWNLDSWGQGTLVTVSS VL: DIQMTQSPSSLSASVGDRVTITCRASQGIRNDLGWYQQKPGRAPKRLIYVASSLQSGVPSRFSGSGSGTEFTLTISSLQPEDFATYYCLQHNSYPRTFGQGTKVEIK	0.0498

Attention now turns to another entry.
The molecule ZY0EQD-E02: anti-B7-H4 antibody clone, VH SEQ ID NO: 33, VL SEQ ID NO: 34 (antibody, V domains shown) VH: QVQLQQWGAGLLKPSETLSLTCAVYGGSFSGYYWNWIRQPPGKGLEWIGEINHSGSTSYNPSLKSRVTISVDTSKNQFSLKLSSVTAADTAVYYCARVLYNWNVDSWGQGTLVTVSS VL: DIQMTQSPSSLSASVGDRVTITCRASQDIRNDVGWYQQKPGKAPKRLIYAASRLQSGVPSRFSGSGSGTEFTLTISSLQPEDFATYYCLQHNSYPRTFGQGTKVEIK showed kdis equal to 0.213
